Data credit: patent US20070167353A1

EXPERIMENT_DESCRIPTION: Solubility testing in water
Type: physicochemical
ASSAY_CONTEXT: thermodynamic from solid; water added dropwise to 5 mg
MEASUREMENT_TYPE: solubility

**Query** Can you share its solubility? I mean this compound: Nc1ncnc2c1ncn2[C@@H]1O[C@H](CO)[C@@H](O)[C@@H]1O [Ara A, Adenine 9-beta-D-arabinofuranoside, reference compound]
**Result** < 500 µg/mL

* * *

TARGET_OR_SYSTEM: HPEPT1 (Homo sapiens, UniProt P46059)
Sequence (P46059 1-708): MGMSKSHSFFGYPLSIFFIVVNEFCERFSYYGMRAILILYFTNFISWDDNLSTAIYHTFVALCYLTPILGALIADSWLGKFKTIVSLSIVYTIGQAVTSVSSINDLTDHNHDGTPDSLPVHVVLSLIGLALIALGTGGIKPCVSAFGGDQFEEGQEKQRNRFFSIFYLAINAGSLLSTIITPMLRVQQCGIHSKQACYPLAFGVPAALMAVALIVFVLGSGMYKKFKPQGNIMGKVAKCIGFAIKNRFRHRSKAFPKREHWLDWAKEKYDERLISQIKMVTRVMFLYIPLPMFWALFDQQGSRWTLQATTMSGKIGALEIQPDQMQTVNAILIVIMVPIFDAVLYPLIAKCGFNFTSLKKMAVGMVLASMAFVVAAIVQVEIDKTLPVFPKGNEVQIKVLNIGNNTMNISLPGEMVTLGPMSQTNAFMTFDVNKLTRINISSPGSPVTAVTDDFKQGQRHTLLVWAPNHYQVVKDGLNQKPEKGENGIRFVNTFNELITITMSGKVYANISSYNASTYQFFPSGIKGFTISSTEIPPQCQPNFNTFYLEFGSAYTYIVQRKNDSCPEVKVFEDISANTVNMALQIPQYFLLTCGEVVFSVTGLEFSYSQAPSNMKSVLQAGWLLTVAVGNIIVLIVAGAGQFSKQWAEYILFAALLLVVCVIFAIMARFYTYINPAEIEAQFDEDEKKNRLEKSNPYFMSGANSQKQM
ASSAY_CONTEXT: HeLa cells overexpressing HPEPT1, 50 micromolar, pH 6.0, 45 minutes

MOLECULE	Uptake (hPepT1)
Nc1ccn([C@@H]2O[C@H](COC(=O)[C@@H](N)Cc3ccccc3)[C@@H](O)C2(F)F)c(=O)n1 [5′-O-L-phenylalanyl Gemcitabine]	Not detected
Nc1ccn([C@@H]2O[C@H](COC(=O)[C@H](N)Cc3ccccc3)[C@@H](OC(=O)[C@H](N)Cc3ccccc3)C2(F)F)c(=O)n1 [3′,5′-di-O-D-phenylalanyl Gemcitabine]	Not detected
CC(C)[C@@H](N)C(=O)O[C@@H]1[C@@H](CO)O[C@@H](n2ccc(N)nc2=O)C1(F)F [3′-O-D-valyl Gemcitabine]	0.81 ± 0.02 nmole/mg/45 min
